experiment: Volume of distribution at steady state in mouse; assay type: ADME, organism-based; conditions: in vivo, read-out: Vdss
measurementKind: Vd (L/kg)
Just the number in L/kg, nothing appended.

INSERT INTO results (smilesinput, observedresult) VALUES
  ('C[C@@H]1CC(c2cnc3c(C#N)nn([C@H](C)c4ccc(Cl)cc4Cl)c3n2)=CC[C@@H]1N1CCC[C@H]1C', 4.9);

Note: attention shifts to another entry.
Can you look up the measured Vd of C[C@@H]1CC(c2cnc3c(C#N)nn([C@H](C)c4ccc(Cl)cc4Cl)c3n2)=CC[C@@H]1N1CCC[C@H]1CO for me?
5.7
